Test: log P by HPLC, EEC Directive 79/831 Annex V.A8, method a)
Type: physicochemical
Conditions: cell prints no method mark; Ex. 40 value equals the log P given under method a)
ENDPOINT LABEL: logP
Form field (numeric): enter value without unit.

CCCn1nc(C(F)(F)C(F)(F)F)c(C(F)(F)F)c1C(=O)Nc1ccc(F)c(C(=O)NC2(C#N)CC2)c1 ... 3.74
CSc1c(C(F)(F)C(F)(F)F)nn(C)c1C(=O)Nc1ccc(Cl)c(C(=O)NC2(C#N)CC2)c1 ... 3.43
Cn1nc(C(F)(F)C(F)(F)F)c(C(F)(F)F)c1C(=O)Nc1cc(Cl)c(Br)c(C(=O)NC2(C#N)CC2)c1 ... 3.73

Consider the record given below.
In: Look up logP for this compound: Cn1nc(C2(F)CC2)c(Cl)c1C(=O)Nc1ccc(Cl)c(C(=O)NC2(C#N)CC2)c1
Out: 2.50

* * *

logP values by entry
Assay: log P by HPLC, EEC Directive 79/831 Annex V.A8, method a)
Format: physicochemical
Conditions: cell prints no method mark; Ex. 40 value equals the log P given under method a)
Description: ^a) Note regarding the determination of the log P values and mass detection The determination of the given log P values was carried out in accordance with EEC Directive 79/831 Annex V.A8 by HPLC (High Performance Liquid Chromatography) on a reversed-phase column (C18). […]
Form field (numeric): enter value without unit.

Below, each entry is followed by its recorded logP result.
CCC(=O)N(C(=O)c1cc(NC(=O)c2c(C(F)(F)F)c(C(F)(F)C(F)(F)F)nn2C)ccc1Cl)C1(C#N)CC1 [Example 15] ... 4.17
CCN(C(=O)c1c(C(F)(F)F)c(C(F)(F)C(F)(F)F)nn1CC)c1ccc(Cl)c(C(=O)NC2(C#N)CC2)c1 [Example 43] ... 3.68
Cn1nc(C(F)(F)C(F)(F)F)c([S+](C)[O-])c1C(=O)Nc1ccc(Cl)c(C(=O)NC2(C#N)CC2)c1 (stereo not shown) [Example 45] ... 2.91
Cc1cc(NC(=O)c2c(C(F)(F)F)c(C(F)(F)C(F)(F)F)nn2C)cc(C(=O)NC2(C#N)CC2)c1Cl [Example 24] ... 3.51

In: Look up logP for this molecule: Cn1nc(C(F)(F)C(F)(F)F)c(C(F)(F)F)c1C(=O)N(Cc1ccc(Cl)cc1)c1ccc(Cl)c(C(=O)NC2(C#N)CC2)c1 [Example 28]
Out: 4.30

In: Same read-out for CCOC(=O)N(C(=O)c1c(C(F)(F)F)c(C(F)(F)C(F)(F)F)nn1C)c1ccc(Cl)c(C(=O)N(C(=O)OCC)C2(C#N)CC2)c1 [Example 22] ?
Out: 4.80

In: Same read-out for CCN(C(=O)c1c(C(F)(F)F)c(C(F)(F)C(F)(F)F)nn1CC)c1ccc(Cl)c(C(=O)N(CC)C2(C#N)CC2)c1 [Example 52] ?
Out: 4.26

In: Same read-out for C#CCN(C(=O)c1c(C(F)(F)F)c(C(F)(F)C(F)(F)F)nn1C)c1ccc(Cl)c(C(=O)NC2(C#N)CC2)c1 [Example 26] ?
Out: 3.41

* * *

Test: log P by HPLC, EEC Directive 79/831 Annex V.A8, method a)
Format: physicochemical
Details: reversed-phase HPLC column (C18); HPLC-MS, method note not marked
ENDPOINT LABEL: chromatographic logP
Form field (numeric): enter value without unit.

In: Look up chromatographic logP for this molecule: CSc1c(C(F)(F)C(F)(F)F)nn(C)c1C(=O)O
Out: 3.51
